Biological target: hEP4 (Homo sapiens, UniProt P35408)
Construct: expressed in transfected cells; host or cells: HEK293
Sequence (P35408 whole entry): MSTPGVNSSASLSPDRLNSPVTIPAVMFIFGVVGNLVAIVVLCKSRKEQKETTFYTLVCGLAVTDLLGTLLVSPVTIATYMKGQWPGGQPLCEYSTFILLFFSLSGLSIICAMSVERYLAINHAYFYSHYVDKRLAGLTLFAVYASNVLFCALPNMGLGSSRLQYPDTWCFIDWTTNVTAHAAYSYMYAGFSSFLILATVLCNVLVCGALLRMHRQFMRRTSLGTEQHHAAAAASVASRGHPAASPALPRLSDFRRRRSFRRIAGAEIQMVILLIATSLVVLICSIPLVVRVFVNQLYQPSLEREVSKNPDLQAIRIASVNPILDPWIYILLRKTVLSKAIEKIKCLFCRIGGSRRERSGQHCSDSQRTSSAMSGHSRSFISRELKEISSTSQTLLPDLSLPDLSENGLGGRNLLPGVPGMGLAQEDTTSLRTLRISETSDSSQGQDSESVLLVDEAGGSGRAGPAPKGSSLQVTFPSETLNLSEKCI
Experiment: hEP4 cAMP assay
Type: cell-based
Settings: HEK293 cells overexpressing hEP4; PGE2 agonist 20 nM; graded per Table 21; read-out: IC50 (nM) EP4 cAMP
measured-quantity: IC50

INSERT INTO assay_data (compound, recorded_value) VALUES
  ('COc1cc(-c2ccc(Cc3c(C)sc(C)c3C(=O)NC3CC4(C3)CC(C(=O)O)C4)cc2)cc(C(F)(F)F)c1 (stereo not shown)', '< 500 nM'),
  ('Cc1sc(C)c(C(=O)NC2CC3(C2)CC(C(=O)O)C3)c1Cc1ccc(-c2cc(F)cc(OC(C)C)c2)cc1 (stereo not shown)', '500 to 5000 nM'),
  ('O=C(NC1CC2(C1)CC(C(=O)O)C2)c1csc2ccn(Cc3ccc(-c4ccccn4)cc3)c12 (stereo not shown)', '< 500 nM'),
  ('O=C(NC12CCC(C(=O)O)(CC1)CC2)c1csc2ccn(Cc3ccc(-c4ccccc4)cc3)c12', '5000 to 10000 nM'),
  ('O=C(NC1CC2(C1)CC(C(=O)O)C2)c1csc2ccn(Cc3ccc(-c4ccncc4)cc3)c12 (stereo not shown)', '< 500 nM'),
  ('O=C(NC1CC2(C1)CC(C(=O)O)C2)c1csc2ccn(CCc3ccc(-c4ccccc4)cc3)c12 (stereo not shown)', '> 10000 nM'),
  ('O=C(NC1CC2(C1)CC(C(=O)O)C2)c1c(Br)sc(Br)c1Cc1ccc(-c2ccccc2)cc1 (stereo not shown)', '500 to 5000 nM'),
  ('Cc1sc2ccn(Cc3ccc(-c4ccccc4)cc3)c2c1C(=O)N[C@H]1CC2(C1)C[C@H](C(=O)O)C2 (single isomer, unassigned) [Example 80a]', '> 10000 nM'),
  ('COc1ccccc1-c1ccc(Cc2c(C)sc(C)c2C(=O)NC2CC3(C2)CC(C(=O)O)C3)cc1 (stereo not shown)', '500 to 5000 nM'),
  ('COc1ccc(F)cc1-c1ccc(Cc2c(C)sc(C)c2C(=O)NC2CC3(C2)CC(C(=O)O)C3)cc1 (stereo not shown)', '< 500 nM'),
  ('Cc1sc(C)c(C(=O)NC2CC3(C2)CC(C(=O)O)C3)c1CN1CCN(c2ccccc2)CC1 (stereo not shown)', '> 10000 nM'),
  ('COc1ccc(F)c(-c2ccc(Cc3c(C)sc(C)c3C(=O)NC3CC4(C3)CC(C(=O)O)C4)cc2)c1 (stereo not shown)', '500 to 5000 nM'),
  ('CCc1ccc(-c2ccc(Cc3c(C)sc(C)c3C(=O)NC3CC4(C3)CC(C(=O)O)C4)cc2)cc1 (stereo not shown)', '< 500 nM'),
  ('Cc1sc(C)c(N(C)c2ccc(-c3ccccc3)cc2)c1C(=O)NC1CC2(C1)CC(C(=O)O)C2 (stereo not shown)', '500 to 5000 nM'),
  ('O=C(NC1CC2(C1)CC(C(=O)O)C2)c1csc2ccn(Cc3ccc(-c4ccccc4)cc3)c12 (stereo not shown)', '< 500 nM'),
  ('COc1ccc(-c2ccc(Cc3c(C)sc(C)c3C(=O)NC3CC4(C3)CC(C(=O)O)C4)cc2)cc1F (stereo not shown)', '< 500 nM');

* * *

Target: hEP4 (Homo sapiens, UniProt P35408)
Construct: expressed in transfected cells; host or cells: HEK293
Assay: hEP4 cAMP assay
Type: cell-based
Conditions: HEK293 cells overexpressing hEP4; PGE2 agonist 20 nM; graded per Table 21; read-out: IC50 (nM) EP4 cAMP
Measured IC50 by item
measured-quantity: IC50

INSERT INTO assay_data (compound, experimental_target, recorded_value) VALUES
  ('Cc1sc(C)c(C(=O)NC2CC3(C2)CC(C(=O)O)C3)c1Cc1ccc(-c2ccc(F)c(C(=O)O)c2)cc1 (centres unmarked)', 'hEP4 (Homo sapiens, UniProt P35408)', '5000 to 10000 nM'),
  ('Cc1sc(C)c(C(=O)NC2CC3(C2)CC(C(=O)O)C3)c1Cc1ccc(-c2cc(O)cc(F)c2)cc1 (centres unmarked)', 'hEP4 (Homo sapiens, UniProt P35408)', '< 500 nM'),
  ('Cc1sc(C)c(C(=O)NC2CC3(C2)CC(C(=O)O)C3)c1Cc1ccc(Cl)cc1 (centres unmarked)', 'hEP4 (Homo sapiens, UniProt P35408)', '> 10000 nM'),
  ('Cn1cc(-c2ccc(Cn3ccc4scc(C(=O)NC5CC6(C5)CC(C(=O)O)C6)c43)cc2)cn1 (centres unmarked)', 'hEP4 (Homo sapiens, UniProt P35408)', '< 500 nM'),
  ('O=C(NC1CC2(C1)CC(C(=O)O)C2)c1csc2ccn(Cc3ccc(-n4cccn4)cc3)c12 (centres unmarked)', 'hEP4 (Homo sapiens, UniProt P35408)', '500 to 5000 nM'),
  ('Cc1sc(C)c(C(=O)N[C@H]2CC3(C2)C[C@H](C(=O)O)C3)c1Cc1ccc(-c2ccccc2)cc1 (single isomer, unassigned) [Example 1b]', 'hEP4 (Homo sapiens, UniProt P35408)', '< 500 nM'),
  ('Cc1sc(C)c(C(=O)NC2CC3(C2)CC(C(=O)O)C3)c1Cc1ccc(-c2cccnc2)cc1 (centres unmarked)', 'hEP4 (Homo sapiens, UniProt P35408)', '500 to 5000 nM'),
  ('CCOc1cc(F)cc(-c2ccc(Cc3c(C)sc(C)c3C(=O)NC3CC4(C3)CC(C(=O)O)C4)cc2)c1 (centres unmarked)', 'hEP4 (Homo sapiens, UniProt P35408)', '< 500 nM'),
  ('COc1cccc(-c2ccc(Cn3ccc4scc(C(=O)NC5CC6(C5)CC(C(=O)O)C6)c43)cc2)c1 (centres unmarked)', 'hEP4 (Homo sapiens, UniProt P35408)', '< 500 nM'),
  ('Cc1sc(C)c(C(=O)NC2CC3(C2)CC(C(=O)O)C3)c1Cc1ccc(-c2cccc(C(F)(F)F)c2)cc1 (centres unmarked)', 'hEP4 (Homo sapiens, UniProt P35408)', '< 500 nM'),
  ('COc1cc(F)cc(-c2ccc(Cc3c(C)sc(C)c3C(=O)N[C@H]3CC4(C3)C[C@H](C(=O)O)C4)cc2)c1 (single isomer, unassigned) [Example 34a]', 'hEP4 (Homo sapiens, UniProt P35408)', '500 to 5000 nM'),
  ('COc1cc(F)cc(-c2ccc(Cc3c(C)sc(C)c3C(=O)NC3CC4(C3)CC(C(=O)O)C4)cc2)c1 (centres unmarked)', 'hEP4 (Homo sapiens, UniProt P35408)', '< 500 nM'),
  ('Cc1sc(C)c(C(=O)NC2CC3(C2)CC(C(=O)O)C3)c1Oc1ccc(-c2ccccc2)cc1 (centres unmarked)', 'hEP4 (Homo sapiens, UniProt P35408)', '> 10000 nM'),
  ('O=C(N[C@H]1C[C@H](C(=O)O)C1)c1csc2ccn(Cc3ccc(-c4ccccc4)cc3)c12', 'hEP4 (Homo sapiens, UniProt P35408)', '> 10000 nM'),
  ('Cc1sc(C)c(C(=O)N(C)C2CC3(CC(C(=O)O)C3)C2)c1Cc1ccc(-c2ccccc2)cc1 (centres unmarked)', 'hEP4 (Homo sapiens, UniProt P35408)', '> 10000 nM'),
  ('Cc1sc(C)c(C(=O)NC2CC3(C2)CC(C(=O)O)C3)c1Cc1ccc(-c2ccncc2)cc1 (centres unmarked)', 'hEP4 (Homo sapiens, UniProt P35408)', '500 to 5000 nM'),
  ('Cc1sc(C)c(C(=O)N[C@H]2CC3(C2)C[C@H](C(=O)O)C3)c1Cc1ccc(-c2ccccc2)cc1 (single isomer, unassigned) [Example 1a]', 'hEP4 (Homo sapiens, UniProt P35408)', '> 10000 nM'),
  ('Cc1sc(C)c(C(=O)NC2CC3(C2)CC(C(=O)O)C3)c1Cc1ccc(C2=CCCCC2)cc1 (centres unmarked)', 'hEP4 (Homo sapiens, UniProt P35408)', '500 to 5000 nM'),
  ('Cc1sc(C)c(C(=O)NC2CC3(C2)CC(C(=O)O)C3)c1Cc1ccc(-c2ccc(F)cc2)cc1 (centres unmarked)', 'hEP4 (Homo sapiens, UniProt P35408)', '< 500 nM'),
  ('Cc1sc(C)c(C(=O)NC2CC3(C2)CC(C(=O)O)C3)c1Cc1ccc(-c2cc(F)cc(C(N)=O)c2)cc1 (centres unmarked)', 'hEP4 (Homo sapiens, UniProt P35408)', '< 500 nM');

* * *

Target: hEP4 (Homo sapiens)
Construct: expressed in transfected cells; host or cells: HEK293
Test: hEP4 cAMP assay
Type: cell-based
Conditions: HEK293 cells overexpressing hEP4; PGE2 agonist 20 nM; graded per Table 21; read-out: IC50 (nM) EP4 cAMP
measured-quantity: IC50

INSERT INTO measurements (compound, recorded_value) VALUES
  ('Cc1sc(C)c(C(=O)NC2CC3(C2)CC(C(=O)O)C3)c1Cc1ccc(Oc2ccccc2)cc1 (stereo not drawn)', '5000 to 10000 nM'),
  ('Cc1sc(C)c(C(=O)NC2CC3(C2)CC(C(=O)O)C3)c1Cc1ccccc1-c1ccccc1 (stereo not drawn)', '> 10000 nM'),
  ('Cc1sc2ccn(Cc3ccc(-c4ccccc4)cc3)c2c1C(=O)N[C@H]1CC2(C1)C[C@H](C(=O)O)C2 (single isomer, unassigned) [Example 80b]', '< 500 nM');
